Biological target: T1, Full-length human HER3 extracellular domain (ECD) (human, UniProt P21860 20-643)
T1 construct: also called human HER3 ECD; HER-3 ECD full length
T1 sequence (P21860 20-643): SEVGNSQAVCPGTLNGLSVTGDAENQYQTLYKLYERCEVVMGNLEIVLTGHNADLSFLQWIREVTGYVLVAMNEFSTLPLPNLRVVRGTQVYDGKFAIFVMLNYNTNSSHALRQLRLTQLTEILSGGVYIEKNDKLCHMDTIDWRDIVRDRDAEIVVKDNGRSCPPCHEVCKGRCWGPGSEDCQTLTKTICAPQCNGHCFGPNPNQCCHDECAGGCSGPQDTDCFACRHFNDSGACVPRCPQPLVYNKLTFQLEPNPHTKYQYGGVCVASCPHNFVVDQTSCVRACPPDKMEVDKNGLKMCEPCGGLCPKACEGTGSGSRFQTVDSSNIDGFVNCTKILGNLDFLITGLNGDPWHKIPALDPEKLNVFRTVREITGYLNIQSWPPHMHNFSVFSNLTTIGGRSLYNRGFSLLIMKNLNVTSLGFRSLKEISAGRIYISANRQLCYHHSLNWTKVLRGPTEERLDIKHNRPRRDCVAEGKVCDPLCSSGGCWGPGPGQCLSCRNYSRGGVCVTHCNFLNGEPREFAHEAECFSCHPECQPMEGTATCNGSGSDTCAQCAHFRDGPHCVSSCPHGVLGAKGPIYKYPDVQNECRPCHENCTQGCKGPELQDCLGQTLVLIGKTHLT
Assay: BIACORE 2000 SPR, mAb captured, HER3 protein as analyte, 25 C
ATTRIBUTE_MEASURED: pKd
pKd is defined as minus the log10 of a concentration measured in mol/L.

Consider the worked cases shown below.
Murine 15D5 antibody (M5.15D5.2A1.1H10) (antibody, IgG1, V domains shown, Mouse monoclonal, IgG1; also called m15D5; M5.15D5.1C1) VH: EFQLQQSGPELVKPGASVKISCKASGYSFTDYNMNWVKQNNGKSLEWIGGINPNYGTTVYNQKFKGKATLTVDQSSSTAYMQLVSLTSEDSAVYYCARMTTIVPFDYWGQGTTLTVSS VL: DIQMTQTTFSLSASLGDRVTISCRASQDISNYLNWYQQKPDGTVKLLIYYTSTLHSGVPSRFSGSGSGTDYFLTIRNLEEEDIATYFCQQGYTLPWTFGGGTKLDIK; 8.63
Murine 1D9 antibody (M5.1D9.1F5) (antibody, IgG2b, V domains shown, Mouse monoclonal, IgG2b; also called m1D9) VH: QVQLQQPGAELVRPGTSVKLSCKASGYTFTSYWMHWVKQRPGQGLEWIGVIDPSDGYSHYNQKFKGKATLTVDTSSSTAYMQLSSLTSEDSAVYYCAGGLAGTLDYWGQGTTLTVSS VL: DVLMTQTPLSLPVSLGDQASISCRSSQSIVHSSGNTYLQWFLQKPGQSPKLLISKVSNRFSGVPDRFSGSGSGTDFTLRISRVEAEDLGLYYCFQGSHVPWTFGGGTKLEIK; 9.09
Chimeric 1D9 antibody (antibody, V domains shown, Murine VH fused to human IgG1 CH1-Fc, murine VL fused to human CK; also called Ch1D9; ch1D9) VH: QVQLQQPGAELVRPGTSVKLSCKASGYTFTSYWMHWVKQRPGQGLEWIGVIDPSDGYSHYNQKFKGKATLTVDTSSSTAYMQLSSLTSEDSAVYYCAGGLAGTLDYWGQGTTLTVSS VL: DVLMTQTPLSLPVSLGDQASISCRSSQSIVHSSGNTYLQWFLQKPGQSPKLLISKVSNRFSGVPDRFSGSGSGTDFTLRISRVEAEDLGLYYCFQGSHVPWTFGGGTKLEIK; 8.96

Let us examine a further case.
Value of pKd reported for the binder Chimeric 15D5 antibody (antibody, human IgG1, V domains shown, To be rechecked; also called Ch15D5; ch15D5) VH: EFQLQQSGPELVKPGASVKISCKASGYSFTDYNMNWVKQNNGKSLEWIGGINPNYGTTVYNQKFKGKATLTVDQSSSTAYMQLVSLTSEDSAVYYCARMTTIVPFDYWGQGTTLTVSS VL: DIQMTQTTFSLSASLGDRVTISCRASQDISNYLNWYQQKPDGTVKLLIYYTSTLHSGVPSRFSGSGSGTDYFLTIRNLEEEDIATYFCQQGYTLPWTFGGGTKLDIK is 9.06
